STUDY SYSTEM: Human IDO-1 (Homo sapiens, UniProt P14902)
Sequence (P14902 whole entry): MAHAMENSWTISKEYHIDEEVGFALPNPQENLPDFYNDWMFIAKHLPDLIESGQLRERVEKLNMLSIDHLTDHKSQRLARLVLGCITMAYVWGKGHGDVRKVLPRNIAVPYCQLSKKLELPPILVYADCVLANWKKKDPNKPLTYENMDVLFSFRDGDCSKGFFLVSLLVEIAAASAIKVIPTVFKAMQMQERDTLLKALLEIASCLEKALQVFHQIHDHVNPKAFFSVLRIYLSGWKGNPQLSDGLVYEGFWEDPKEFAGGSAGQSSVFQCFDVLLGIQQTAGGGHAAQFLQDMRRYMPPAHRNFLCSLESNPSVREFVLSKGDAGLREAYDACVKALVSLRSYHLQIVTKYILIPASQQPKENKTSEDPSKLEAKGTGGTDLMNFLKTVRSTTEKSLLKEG
EXPERIMENT NOTES: HEK Human IDO-1 cells, Basal N-formyl-kynurenine readout
Assay type: cell-based
MEASUREMENT CONTEXT: Primary CRC, read-out: Basal_N-formyl-kyn IDO1 Rel IC50
ENDPOINT: IC50

MOLECULAR STRING | STUDY SYSTEM | IC50
CCNC(=O)Nc1cccc(CN2CC=C(c3cccc(N4CCOCC4)n3)CC2)c1 | Human IDO-1 (Homo sapiens, UniProt P14902) | < 2 µM

Turning to the following compound.
q: Look up and state reported IC50 for CCNC(=O)Nc1cccc(CN2CC=C(c3cccc(N4CCN(C)CC4)n3)CC2)c1
a: > 2 µM

###

STUDY SYSTEM: UniProt P14902
EXPERIMENT NOTES: HEK Human IDO-1 cells, Basal N-formyl-kynurenine readout
Type: cell-based
MEASUREMENT CONTEXT: Primary CRC, read-out: Basal_N-formyl-kyn IDO1 Rel IC50
List of IC50 values.

MOLECULAR STRING | IC50
O=C(Nc1cccc(CN2CC=C(c3cccc(N4CCOCC4)n3)CC2)c1)NC1CCCCC1 | < 2000 nM
CCNC(=O)Nc1cccc(CN2CC=C(c3cccc(N4CCCCC4)n3)CC2)c1 | < 2000 nM
O=C(Nc1cccc(CN2CC=C(c3cccc(N4CCCCC4)n3)CC2)c1)NC1CCCCC1 | < 2000 nM

q: Fill: IC50 (UniProt P14902) for this compound CN1CCN(c2cccc(C3=CCN(Cc4cccc(NC(=O)NC5CCCCC5)c4)CC3)n2)CC1
a: > 2000 nM

q: State recorded IC50 with UniProt P14902, entry O=C(Nc1cccc(CN2CC=C(c3cccc(N4CCCCC4)n3)CC2)c1)NC1CC1 , no comment.
a: < 2000 nM

q: Recall the reported IC50 of CN1CCN(c2cccc(C3=CCN(Cc4cccc(NC(=O)NC5CC5)c4)CC3)n2)CC1 when tested on UniProt P14902.
a: > 2000 nM
